Data origin: ChEMBL document CHEMBL4725463

assay: Selectivity ratio of CC50 for cytotoxicity against human HeLa cells to EC50 for antiviral activity against Venezuelan equine encephalitis virus IC-SH3 infected in HeLa cells
Assay type: toxicity, cell-based
testContext: read-out: Ratio CC50/EC50
assayEndpoint: selectivity ratio

COC(=O)/C=C/CNC(=O)c1cccc2c1NC(C)(C)C=C2C
> 55
COC(=O)/C=C/CNC(=O)c1cccc2c1NCCC2
> 2
COC(=O)/C=C/CNC(=O)c1cccc2c1NC(C)(C)C[C@H]2C
> 26

Attention now shifts to the item below.
-- ask // lookup selectivity ratio for `COC(=O)/C=C/CNC(=O)c1cc(C)cc2c1NC(C)(C)C=C2C`
-- reply > 4

----------
assay: Cytotoxicity against human SK-N-BE(2)-M17 cells
Type: cell-based
The reader will find reported CC50 values listed item by item below.
Form entry: value (µM) — number only.

Solved entries (count: 2):
COC(=O)/C=C/CNC(=O)c1cccc2c1NC(C)(C)C=C2C
18.1
COC(=O)/C=C/CNC(=O)c1cccc2c1NC(C)(C)C[C@H]2C
11

-- ask For the compound shown here, `O=C(N[C@H](/C=C/S(=O)(=O)c1ccccc1)Cc1ccccc1)c1cccc2cccnc12` , give the reported CC50.
-- reply 16

-- ask CC50 for `CC1=CC(C)(C)Nc2c(C(=O)NC/C=C/S(C)(=O)=O)cccc21` ?
-- reply 19.6

-- ask Could you tell me which CC50 is on file for `COC(=O)/C=C/CNC(=O)c1c[nH]c2ccc(Br)cc12` ?
-- reply 12

----------
System: Venezuelan equine encephalitis virus
assay: Antiviral activity against Venezuelan equine encephalitis virus TC-83 infected in human BE(2)-M17 cells pretreated with compound for 2 hrs followed by viral infection at MOI of 1.2 and measured after 7 hrs by immunostaining based confocal microscopic analysis
Format: functional, organism-based
testContext: strain TC-83, SK-N-BE(2)-M17
pEC50: −log10 of the molar value.
Use Yes when the recorded pEC50 is no lower than 5; use No when it is lower.

C[C@@H]1CC(C)(C)Nc2c(C(=O)N[C@@H](C)/C=C/S(C)(=O)=O)cccc21
Yes
COC(=O)/C=C/CNC(=O)c1c[nH]c2ccc(Br)cc12
Yes
CC1=CC(C)(C)Nc2c(C(=O)N[C@@H](C)/C=C/S(C)(=O)=O)cccc21
Yes
CC1=CC(C)(C)Nc2c(C(=O)N[C@H](/C=C/S(C)(=O)=O)Cc3ccccc3)cccc21
No
COC(=O)/C=C/CNC(=O)c1cccc2c1NC(C)(C)C=C2C
Yes
CC1=CC(C)(C)Nc2c(C(=O)NC/C=C/S(C)(=O)=O)cccc21
Yes

-- ask Does `C[C@@H]1CC(C)(C)Nc2c(C(=O)NC/C=C/S(C)(=O)=O)cccc21` have a reported pEC50 of at least 5?
-- reply Yes

-- ask Could you tell me if the measured pEC50 of `COC(=O)/C=C/CNC(=O)c1cccc2c1NC(C)(C)C[C@H]2C` reaches 5 or more?
-- reply No

-- ask I'd appreciate it if you could say whether `CN1CCN(C)/C(=N\c2ccc([N+](=O)[O-])cc2C(=O)Nc2ccccc2)C1` has pEC50 at least equal to 5.
-- reply Yes

-- ask Confirm if pEC50 reported for the compound `O=C(N[C@H](/C=C/S(=O)(=O)c1ccccc1)Cc1ccccc1)c1cccc2cccnc12` is 5 or above.
-- reply No
